- TESTED TARGET: DNMT2 (Homo sapiens)
- Construct: made in house
- PROCEDURE DETAILS: Fluorescent tracer displacement assay (FTAD-MST assay)
- Assay type: binding
OBSERVABLE: pKd
Scale: negative log10 of molar concentration, which is what pKd denotes.

Task item: Give its pKd value. Item: `Nc1ncnc2c1ncn2[C@@H]1O[C@H](CN(CC[C@H](N)C(=O)O)Cc2ccc(Cl)c(C(F)(F)F)c2)[C@@H](O)[C@H]1O`
Reply: 5.11

----------
Hi there, I'd appreciate the recorded IC50 for every entry that follows.
- TESTED TARGET: DNMT2 (Homo sapiens)
- Construct: made in house
- PROCEDURE DETAILS: DNMT2 enzymatic split aptamer MST assay
- Type: biochemical
- CONDITION DETAILS: MST-derived; 250 nM DNMT2, 5 µM tRNA, 0.9 µM SAM
Respond with the bare value in µM.

Task item: Name the reported IC50 value associated with the molecule `C#CCN(CC[C@H](N)C(=O)O)C[C@H]1O[C@@H](n2cnc3c(N)ncnc32)[C@H](O)[C@@H]1O`
Reply: 7.9

Task item: Quick check: IC50 of `Nc1ncnc2c1ncn2[C@@H]1O[C@H](CN(CC[C@H](N)C(=O)O)Cc2ccc(Cl)c(C(F)(F)F)c2)[C@@H](O)[C@H]1O` ?
Reply: 9.3

Task item: May I ask what IC50 has been recorded for `C=CC(=O)NC(=O)NC12CC3CC(CC(C3)C1)C2` ?
Reply: 4.1

----------
- TESTED TARGET: DNMT2 (Homo sapiens)
- Construct: made in house
- Sequence (O14717 1-391): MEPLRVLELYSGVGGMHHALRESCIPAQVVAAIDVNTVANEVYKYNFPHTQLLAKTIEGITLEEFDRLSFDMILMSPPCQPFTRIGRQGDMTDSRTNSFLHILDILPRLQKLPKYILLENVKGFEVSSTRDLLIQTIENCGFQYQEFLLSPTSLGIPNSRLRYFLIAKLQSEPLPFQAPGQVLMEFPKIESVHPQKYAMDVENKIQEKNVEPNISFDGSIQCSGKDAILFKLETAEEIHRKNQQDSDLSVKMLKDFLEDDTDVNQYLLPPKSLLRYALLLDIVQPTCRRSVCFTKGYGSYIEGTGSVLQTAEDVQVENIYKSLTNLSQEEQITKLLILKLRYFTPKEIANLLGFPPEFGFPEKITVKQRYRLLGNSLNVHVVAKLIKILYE
- PROCEDURE DETAILS: DNMT2 radiometric 3H incorporation assay
- Type: biochemical
- CONDITION DETAILS: orthogonal 3H-incorporation assay; read-out: IC50
OBSERVABLE: pIC50
Lab note: report pIC50 as minus log10 of the concentration in molar units, number only.

Task item: Quick check: pIC50 of `C#CCN(CC[C@H](N)C(=O)O)C[C@H]1O[C@@H](n2cnc3c(N)ncnc32)[C@H](O)[C@@H]1O` ?
Reply: 5.03

----------
- TESTED TARGET: DNMT2 (Homo sapiens)
- Construct: made in house
- PROCEDURE DETAILS: DNMT2 radiometric 3H incorporation assay
- Assay type: biochemical
OBSERVABLE: pIC50
Friendly reminder that pIC50 comes from taking -log10 of the concentration in mol/L.

Task item: What value of pIC50 has been recorded for this entry: Nc1ncnc2c1ncn2[C@@H]1O[C@H](CN(CC[C@H](N)C(=O)O)Cc2ccc(Cl)c(C(F)(F)F)c2)[C@@H](O)[C@H]1O [SH112]
Reply: 4.81

----------
- TESTED TARGET: aptaSAH1&2 SAH split aptamer
- PROCEDURE DETAILS: Split aptamer (aptaSAH1&2) plate reader-based FRET ligand titration
- Format: binding, D. aromatica
- CONDITION DETAILS: FRET, aptaSAH1&2 each 50 nM, λex = 485 nm, λem = 600 nm; read-out: apparent KD
Provide the reported Kd of each item.
Answer with a number only, understood to be in µM.

Task item: Lab request: please report Kd under test system aptaSAH1&2 SAH split aptamer for `Nc1ncnc2c1ncn2[C@@H]1O[C@H](CSCC[C@H](N)C(=O)O)[C@@H](O)[C@H]1O`
Reply: 0.018

Task item: Give Kd (aptaSAH1&2 SAH split aptamer) of the following molecule: C[S+](CC[C@H](N)C(=O)[O-])C[C@H]1O[C@@H](n2cnc3c(N)ncnc32)[C@H](O)[C@@H]1O (some centres unmarked)
Reply: 5.3
